# Test system: CP256
# assay_remarks: qHTS profiling for inhibitors of Plasmodium falciparum proliferation (AID 504749); further: nearly all actives have a fitted effect of over 60% in size
# protocol_conditions: P. falciparum in erythrocytes, SYBR Green DNA, 72 h; series mostly up to 28.7 µM
Inconclusive results are not listed. Activity calls are given as the source filed them. The call rests on the fitted dose curve; in most records, active means well fitted inhibition curve with a large enough effect; inconclusive means small, poorly fitted or top-dose-only effect; inactive means flat fitted curve, though single readings scatter.
Please answer using one outcome listed in True (active), False (inactive)

Tell me the recorded outcome of this test for CCCCCCCCNC(C)C(O)c1ccc(SC(C)C)cc1 (configuration not stated) .
True

Dear colleague, could you share the recorded outcome for CC(C)=CCOc1ccc(/C=C/C(=O)c2ccc(OCC=C(C)C)cc2OCC(=O)O)cc1 when you have a moment?
False

Lab log entry: c1ccc(-c2nc[nH]c2-c2ccccc2)cc1 — outcome as called in the assay?
False

Recorded call for CCCCCCCCCCCCSCCOCCO ?
False

Called result for O=C(Nc1ncc([N+](=O)[O-])s1)c1cccs1
False

State the result this test recorded for C/C=C/c1ccc(O)c(OC)c1 .
False

Which outcome was assigned to NC(N)=NCc1cccc(I)c1 in this test?
False

Fill in: this test's call for CCCCCCCCCCCCCC(=O)OC(C)C is ___
False

Short answer needed: outcome of this test for Nc1ccc(S(=O)(=O)NCc2ccccc2)cc1 ?
False

Give the logged outcome of this assay for the following molecule: CCOC(=O)C(C#N)=C(c1ccccc1)c1ccccc1
False

# lookup: test call for O=C(O)CCNC(=O)c1ccccc1
False

What did this assay record as the result for COc1cc(NS(=O)(=O)c2ccc(N)cc2)ncn1 ?
False

Dear all, I need the recorded test outcome for Cc1cc(NS(=O)(=O)c2ccc(N)cc2)nc(C)n1 , thank you.
False

Outcome? NCCNC(=O)c1ccc(Cl)cn1
False

Hello, I am checking results. What call was entered for Cc1cc(C)cc(OCC2CNC(=O)O2)c1 (configuration not stated) ?
False

Which outcome was entered for the molecule COc1ccc(C(=O)c2ccccc2)c(O)c1 in this test?
False

What was the test verdict on CC(=O)Oc1ccc(C)cc1 ?
False

Hey, what did the test say about O=C(Nc1cccc(C2=NCCN2)c1)Nc1cccc(C2=NCCN2)c1 ?
True

Any idea what this test logged for CCC(C(=O)OCCOCCN(CC)CC)c1ccccc1 (configuration not stated) ?
False

Returns: the outcome recorded for Nc1ccc(S(=O)(=O)Nc2cnc3ccccc3n2)cc1 in this assay.
False

Call for entry CCNC(=O)NCc1cccc(Cl)c1 :
False

Which outcome did this test record for the molecule CCCCC(CC)COC(=O)/C=C/c1ccc(OC)cc1 (configuration not stated) ?
False

// outcome(item) with item = C[N+]1(CC2COC(c3ccccc3)(C3CCCCC3)O2)CCCCC1 (configuration not stated)
True

Outcome logged for OCCOCCN1CCN(C2=Nc3ccccc3Sc3ccccc32)CC1 in this assay:
False

Per the records of this test, what outcome belongs to Cc1c(-c2ccccc2)oc2c(C(=O)OCCN3CCCCC3)cccc2c1=O ?
False

Lab log entry: OCc1ccccn1 — outcome as called in the assay?
False

Field: outcome | Entry: C#C[C@]1(O)CC[C@H]2[C@@H]3CCc4cc(OC)ccc4[C@H]3CC[C@@]21C
False

====

# Tested on: CP185
# assay_remarks: qHTS profiling for inhibitors of Plasmodium falciparum proliferation (AID 504749); further: nearly all actives have a fitted effect of over 60% in size
# protocol_conditions: P. falciparum in erythrocytes, SYBR Green DNA, 72 h; series mostly up to 28.7 µM
Results filed as inconclusive are left out. The source made the active and inactive calls. The call rests on the fitted dose curve; in most records, active means well fitted inhibition curve with a large enough effect; inconclusive means small, poorly fitted or top-dose-only effect; inactive means flat fitted curve, though single readings scatter.
Hello, when you answer, please use one of the following outcomes: active, inactive

Please share the test call associated with CCCCCCCCCCCCCC[N+](C)(C)Cc1ccccc1 .
active

// outcome(item) with item = CC(=O)OCC(=O)[C@H]1CC[C@H]2[C@@H]3CCC4=CC(=O)CC[C@]4(C)[C@H]3CC[C@]12C
inactive

Just curious, what result did CCCCCCCCCCCCCCCC(=O)O get here?
inactive

Please indicate how the test categorized CCOCCn1c(N2CCCN(C)CC2)nc2ccccc21 .
inactive

Hi, do you know how CCOc1cc(OCC)c(C(=O)CCC(=O)O)cc1OCC came out in this test?
inactive

Just curious, what result did O=C(O)CCNC(=O)c1ccccc1 get here?
inactive
